Task for the reader: assign each of the following compounds its reported Inhibition.
Tested on: HepG2
ASSAY_REMARKS: GSK_TCMDC: Percent inhibition of human HepG2 cell line. Test compounds present at 10uM.
Format: functional
Give bare numbers, in %.

Worked set:
[
  {
    "STRUCTURE": "COc1ccc2nc3cc(Cl)ccc3c(NCCCCCCNc3c4ccc(Cl)cc4nc4ccc(OC)cc34)c2c1.Cl.Cl.Cl.Cl",
    "READING": 20
  },
  {
    "STRUCTURE": "CCn1c(C2CCN(CCC3CCN(C(=O)/C=C/c4ccc(Cl)c(Cl)c4)CC3)CC2)nc2ccccc21",
    "READING": 17
  },
  {
    "STRUCTURE": "CC(C)CNC(=O)c1cncc(-c2ccc(CN(C)C3CCN(C)CC3)cc2)c1.O=C(O)C(F)(F)F",
    "READING": 15
  }
]

Now for another entry.
# get_value(readout= Inhibition, system= HepG2) for `Cc1nnc2c(NC(=O)NC3CCCC3)cc3cc(-c4ccc(CN5CCN(C)CC5)cc4)ccc3n12`
100
